# target.or.system: T1, recombinant human IL-23R/Fc chimera (R&D Systems) (human, UniProt Q5VWK5 24-353)
# T1 construct: bought; also called human IL-23R/Fc fusion protein; rhIL23RFc
# T1 sequence (looked up): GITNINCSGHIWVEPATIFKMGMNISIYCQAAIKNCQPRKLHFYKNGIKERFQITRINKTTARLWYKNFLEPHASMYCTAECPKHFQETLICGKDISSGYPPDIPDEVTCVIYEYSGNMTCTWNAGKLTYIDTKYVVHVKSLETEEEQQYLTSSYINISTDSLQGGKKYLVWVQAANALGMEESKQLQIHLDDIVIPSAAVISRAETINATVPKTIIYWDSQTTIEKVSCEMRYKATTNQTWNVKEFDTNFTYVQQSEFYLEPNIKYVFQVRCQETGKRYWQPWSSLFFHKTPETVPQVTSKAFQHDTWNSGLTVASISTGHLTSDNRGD
# assay.summary: competition ELISA against IL-23
reported.property: Ratio IC50 to 056-53.H4E IC50 (ratio)
Numbers only, in ratio.

Examples with their reported Ratio IC50 to 056-53.H4E IC50 follow.
# binder, Ratio IC50 to 056-53.H4E IC50, ratio
data = [
    ("105-20-2C7 ATRIMER (designed binder) EPPTQKPKKIVNAKKDVVNTKMFEELKSRLDTLAQEVALLKEQQALQTVCLKGTKVHMKCFLAFTQTKTFHEASEDCISRGGTLSTPQTGSENDALYEYLRQSVGNEAEIWLGLNGSVTTDTWVDMTGARIAYKNWETEITAQPDGGFGYFGENCAVLSGAANGKWFDKRCRDQLPYICQFGIV", 3.5),
    ("101-51-1A4 ATRIMER (designed binder, also called ATRIMER complex 1A4) EPPTQKPKKIVNAKKDVVNTKMFEELKSRLDTLAQEVALLKEQQALQTVCLKGTKVHMKCFLAFTQTKTFHEASEDCISRGGTLSTPQTGSENDALYEYLRQSVGNEAEIWLGLNGSALTNTWVDMTGARIAYKNWERPALVQPRGGFGVFGENCAVLSGAANGKWFDKRCRDQLPYICQFGIV", 1),
]

Attention now shifts to the item below.
// returns reported Ratio IC50 to 056-53.H4E IC50 for input 105-08-2G6 ATRIMER (designed binder, not shown: C-terminal tag: His/Myc (pANA4) or HA-StrepII (pANA10)) EPPTQKPKKIVNAKKDVVNTKMFEELKSRLDTLAQEVALLKEQQALQTVCLKGTKVHMKCFLAFTQTKTFHEASEDCISRGGTLSTPQTGSENDALYEYLRQSVGNEAEIWLGLNGSLLTDTWVDMTGARIAYKNWETEITAQPDGGWGYFGENCAVLSGAANGKWFDKRCRDQLPYICQFGIV
5.2

From: patent US20110086770A1
